Recorded apparent Kd values for a group of sequences are listed next.
Tested on: MS2 coat protein
run_description: apparent Kd, MS2 coat protein; higher = weaker binding; RNA-MaP array; theophylline 2 mM where present
condition_notes: ligand present: theophylline; designed as: ON switch for theophylline
endpoint_label: apparent Kd (nM)

seq_string	endpoint_label	value_unit	quantitative_readout
AAUAUAAGUGUAAUUAUAUGUAUCUCUGAUACCAGACUCUCAUGUGUCCCUUGGCAGCAGUUACAUGAGGAUCACCCAUGUAUUA	apparent Kd	nM	31.9
UAAAUAUUACUGGGUAAGGUAUAAAUAGAUACCAGCCAGAUAACUGGCCCUUGGCAGCUAAACAUGAGGAUCACCCAUGUAUAAU	apparent Kd	nM	116
UAUUUGGUGCGCGAGUGUUGGAUAAUUGAUACCAGUGAAGAAGAGCGCCCUUGGCAGCGAAUCCUAACAUGAGGAUCACCCAUGU	apparent Kd	nM	48.7
GAGACAUGAGGAUCACCCAUGUUAGAUGAUACCAGUUAGAGAAGGAGCCCUUGGCAGCGUAAAUCUAGAGCCUAUGACGACAUGU	apparent Kd	nM	14.2
ACUUGGUGGUGAUCCCUGCCAAGAGGUGAUACCAGCAUCGAAAGAUGCCCUUGGCAGCACCAACAUGAGGAUCACCCAUGUAAUA	apparent Kd	nM	157
ACGACGCAUAGUGAUACCAGUAGAACAUGAGGAUCACCCAUGUCUGUGACGCACAAACUCUGCCCUUGGCAGCACUAUGCGUCAG	apparent Kd	nM	17.4
UUAAAUGUGACGGAUACCAGCGUGUUGUAGAACAUGAGGAUCACCCAUGUAGUGAUCGAGCGCCCUUGGCAGCUGGUAUGUUUGA	apparent Kd	nM	532

These measurements were taken from the EternaBench riboswitch data.
